Biological target: native mouse MET on living cells (mouse, UniProt P16056 25-1379)
Test: cell-based or functional assay
Measured metric: scatter score 0-4, MLP29, 0.037 nM (score)
Report as a plain number; the unit score is understood.

Example binders with recorded scatter score 0-4, MLP29, 0.037 nM:
Return scatter score 0-4, MLP29, 0.037 nM for the following binder: 71A3 chimeric llama-human IgG1 mAb (antibody, V domains shown, llama VH on human IgG1 CH1-CH2-CH3, llama VL on human lambda CL) VH: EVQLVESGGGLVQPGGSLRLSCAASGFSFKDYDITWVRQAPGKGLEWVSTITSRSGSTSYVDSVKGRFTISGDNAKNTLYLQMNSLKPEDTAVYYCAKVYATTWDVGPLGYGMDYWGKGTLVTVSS VL: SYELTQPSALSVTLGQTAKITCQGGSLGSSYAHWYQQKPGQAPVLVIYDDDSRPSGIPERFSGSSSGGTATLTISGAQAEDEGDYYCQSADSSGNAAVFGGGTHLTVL
3

Output scatter score 0-4, MLP29, 0.037 nM of 71G3 chimeric llama-human IgG1 mAb (antibody, V domains shown, llama VH on human IgG1 CH1-CH2-CH3, llama VL on human lambda CL) VH: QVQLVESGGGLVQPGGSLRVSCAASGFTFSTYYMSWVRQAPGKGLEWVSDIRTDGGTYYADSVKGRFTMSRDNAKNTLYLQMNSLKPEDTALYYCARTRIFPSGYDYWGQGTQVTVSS VL: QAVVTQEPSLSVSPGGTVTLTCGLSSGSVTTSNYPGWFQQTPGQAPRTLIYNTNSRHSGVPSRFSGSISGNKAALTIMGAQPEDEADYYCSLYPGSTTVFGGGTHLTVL
1

***
// fetch scatter score 0-4, MLP29, 0.037 nM given entry 74C8 chimeric llama-human IgG1 mAb (antibody, V domains shown, llama VH on human IgG1 CH1-CH2-CH3, llama VL on human lambda CL) VH: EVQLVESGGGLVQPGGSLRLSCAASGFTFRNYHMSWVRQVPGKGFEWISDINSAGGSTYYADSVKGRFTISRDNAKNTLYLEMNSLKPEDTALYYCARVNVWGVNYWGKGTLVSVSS VL: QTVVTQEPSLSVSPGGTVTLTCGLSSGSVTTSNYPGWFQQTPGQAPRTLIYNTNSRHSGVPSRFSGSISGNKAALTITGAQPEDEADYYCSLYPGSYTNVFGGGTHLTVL
1

Measured values drawn from patent US20210087281A1 for this set.
